Ref: patent US12280046B2

# test: Single oral dose ACTH challenge test in rats
# Assay type: in vivo, rat
# experimentalConditions: rat, in vivo; male rats, at minimum effective dose 3 mg/kg oral
readoutType: Cmax (ng/mL)
Report as a plain number; the unit ng/mL is understood.

Provide one value: measured Cmax of `CCOc1ccccc1-c1ccc(N2CCN(C(=O)C3(C(F)(F)F)CCC3)C[C@H]2CC)c(C(=O)N[C@@H]2CN3CCC2CC3)n1`
149

* * *

# experimentalTarget: human MC2R (Homo sapiens, UniProt Q01718)
# Sequence (Q01718 whole entry): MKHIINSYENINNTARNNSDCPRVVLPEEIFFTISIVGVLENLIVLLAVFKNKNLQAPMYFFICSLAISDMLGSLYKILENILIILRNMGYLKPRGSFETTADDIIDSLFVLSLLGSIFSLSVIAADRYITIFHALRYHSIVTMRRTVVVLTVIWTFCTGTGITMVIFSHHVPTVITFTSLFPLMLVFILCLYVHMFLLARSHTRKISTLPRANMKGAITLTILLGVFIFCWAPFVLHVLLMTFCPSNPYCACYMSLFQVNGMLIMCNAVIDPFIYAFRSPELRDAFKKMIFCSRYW
# Sequence (Q8TCY5 whole entry partner): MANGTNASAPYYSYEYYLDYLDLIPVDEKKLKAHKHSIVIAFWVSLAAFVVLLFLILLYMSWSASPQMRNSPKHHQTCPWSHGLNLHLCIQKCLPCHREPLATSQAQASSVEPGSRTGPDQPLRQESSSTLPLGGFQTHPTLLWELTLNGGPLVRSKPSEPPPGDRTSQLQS
# test: Inhibition of ACTH binding: radioactive competition binding assay, hMC2R membranes
# experimentalConditions: hMC2R membranes, [125I]-Tyr23-ACTH(1-39) probe; read-out: equilibrium inhibitory constant (Ki) in a binding assay
# Description: Crude membrane fractions are prepared from CellSensor CRE-bla CHO-K1 cells stably expressing functional hMC2 receptor (ThermoFisher #K1483). […] The inhibition of binding to the human MC2R receptor was measured in a radioactive competition binding assay using the radiolabeled [^125I]-TYR^23]-ACTH (1-39) ligand (PerkinElmer #NEX083, custom synthesis) as the probe ligand for the receptor. […] The radioactive signal was detected using a MicroBetaTriLux 1450 LSC (PerkinElmer). […]
readoutType: Ki

Provide one value: measured Ki of `CCOc1ccccc1-c1ccc(N2CCN(C(=O)C3(C(F)(F)F)CCC3)C[C@H]2CC)c(C(=O)N[C@@H]2CN3CCC2CC3)n1`
< 10 nM

* * *

pIC50: −log10 of the molar value.
readoutType: pIC50

Under MC3R (Homo sapiens, UniProt P41968): report pIC50 of CCOc1ccccc1-c1ccc(N2CCN(C(=O)C3(C(F)(F)F)CCC3)C[C@H]2CC)c(C(=O)N[C@@H]2CN3CCC2CC3)n1 [Compound 1] .
< 6.00

* * *

# test: Phase 1 MAD study, pharmacokinetics, 40 mg daily over 10 days
# Format: in vivo, human
# experimentalConditions: human, in vivo, oral; 40 mg daily over 10 days
readoutType: half-life

Provide one value: measured half-life of `CCOc1ccccc1-c1ccc(N2CCN(C(=O)C3(C(F)(F)F)CCC3)C[C@H]2CC)c(C(=O)N[C@@H]2CN3CCC2CC3)n1`
~30 h
